test system: K562; experiment: Cytotoxicity against human K562 cells assessed as cell viability after 48 hrs by trypan blue exclusion assay; format: functional, cell-based; details: K562, 48 h
PARAMETER: IC50 (nM)
The answer is to be given in nM; state only the numeric part.

Lab note: need IC50 with K562 for entry CC1=C[C@]2(C)C(=C(C)[C@@H]3[C@@H]4C[C@H](C)C[C@H](C)[C@H]4[C@H]4Oc5ccc(cc5)C[C@]5(O)NC(=O)/C(=C(/O)[C@H]2[C@@H]43)[C@@H]5O)[C@@H]1C , please look it up.
250

# repeat for CC1=C[C@]2(C)C(=C(C)[C@@H]3[C@@H]4C[C@H](C)C[C@H](C)[C@H]4[C@H]4Oc5ccc(cc5)C[C@@]5(O)C=C(C(=O)N5)C(=O)[C@H]2[C@@H]43)[C@@H]1C
1280

###

experiment: Selectivity ratio of IC50 for human PBMC cells to IC50 for human K562 cells; format: cell-based; settings: PBMC cells versus K562 cells, read-out: Ratio IC50
PARAMETER: selectivity ratio
No unit in the answer, only the number.

Quick one: selectivity ratio of CC1=C[C@]2(C)C(=C(C)[C@@H]3[C@@H]4C[C@H](C)C[C@H](C)[C@H]4[C@H]4Oc5ccc(cc5)C[C@]5(O)NC(=O)/C(=C(/O)[C@H]2[C@@H]43)[C@@H]5O)[C@@H]1C ?
40
